Protocol Text: physchem
Below, each entry is listed alongside its reported pKa.
Enter a number only.

- Compound: "CC(O)CN(CC(C)O)CC(C)O (centres unmarked) [triisopropanolamine]"
  pKa: 8.03

Kindly review the next compound as well.
QUERY: Name the reported pKa value associated with the compound CCc1cccc2c3c([nH]c12)C(CC)(CC(=O)O)OCC3 (centres unmarked) [etodolac]
RESULT: 4.65

meta.source: patent US8697096B2
